Experiment: Rat PK: plasma prodrug concentration after intravenous (IV) dosing of xanomeline prodrugs at 1 mg/kg (Example A-6)
Assay type: in vivo, male Sprague-Dawley (SD) rats
Settings: male, Sprague-Dawley, iv, 1 mg/kg, 0.250 h, IV 1 mg/kg of xanomeline, individual animals, read-out: Prodrug Plasma Concentrations Following Intravenous Dosing
Procedure: • Step 1: A stock solution of the compound(s) were prepared to 1 mg/ml in DMSO • Step 2: A 10,000 ng/mL matched matrix standard was prepared using the stock solution(s) • Step 3: Calibration standards in matched matrix were prepared between 10,000 ng/ml and 0.5 ng/mL using serial dilution • Step 4: QC samples were prepared in matched matrix at 4000, 800, 400, 40 and 10 ng/mL […]

[
  {
    "molecule": "CCCCCCOc1nsnc1C1=CCC[N+](C)(C(C)OC(=O)C(C)(C)C)C1 (stereo not shown)",
    "concentration at 0.25 h (ng/mL)": 35.4
  }
]

* * *

Assay: Rat PK: plasma prodrug concentration after intramuscular (IM) dosing of xanomeline prodrugs at 5 mg/kg (Example A-4)
Format: in vivo, male Sprague-Dawley (SD) rats
Conditions: male, Sprague-Dawley, intramuscular, 5 mg/kg, 2.00 h, IM 5 mg/kg of xanomeline, individual animals, read-out: Prodrug Plasma Concentrations Following Intramuscular Dosing
Description: • Step 1: A stock solution of the compound(s) were prepared to 1 mg/ml in DMSO • Step 2: A 10,000 ng/mL matched matrix standard was prepared using the stock solution(s) • Step 3: Calibration standards in matched matrix were prepared between 10,000 ng/ml and 0.5 ng/mL using serial dilution • Step 4: QC samples were prepared in matched matrix at 4000, 800, 400, 40 and 10 ng/mL […]

[
  {
    "compound": "CCCCCCOc1nsnc1C1=CCC[N+](C)(C(C)OC(=O)C(C)(C)C)C1 (stereo not shown)",
    "concentration at 2 h": "80.2 ng/mL"
  }
]

* * *

Assay: Rat PK: plasma prodrug concentration after intravenous (IV) dosing of xanomeline prodrugs at 1 mg/kg (Example A-6)
Assay type: in vivo, male Sprague-Dawley (SD) rats
Settings: male, Sprague-Dawley, iv, 1 mg/kg, analyte prodrug, IV 1 mg/kg of xanomeline, individual animals, read-out: Prodrug AUClast

[
  {
    "molecule": "CCCCCCOc1nsnc1C1=CCC[N+](C)(C(C)OC(=O)C(C)(C)C)C1 (stereo not shown)",
    "AUC(0-t) [ng·h/mL]": 24
  }
]

* * *

Assay: Rat PK: plasma xanomeline after single subcutaneous (SC) dosing of xanomeline or xanomeline prodrugs at 1 mg/kg (Example A-1)
Assay type: in vivo, male Sprague-Dawley (SD) rats
Settings: male, Sprague-Dawley, plasma, sc, xanomeline analyte in plasma, individual animal (Table 3)

[
  {
    "compound": "CCCCCCOc1nsnc1C1=CCCN(C)C1 [Xanomeline]",
    "AUC(0-t) [ng·h/mL]": 40.1
  }
]

* * *

Experiment: Rat PK: plasma xanomeline after subcutaneous (SC) dosing of xanomeline, prodrugs or pamoate salts at 5 mg/kg or 3.5 mg/kg (Example A-2)
Type: in vivo, male Sprague-Dawley (SD) rats
Details: male, Sprague-Dawley, plasma, sc, parent xanomeline dosed SC, Mean

[
  {
    "given.smiles": "CCCCCCOc1nsnc1C1=CCCN(C)C1",
    "unit.of.measure": "ng/mL",
    "Cmax": 43
  }
]
